Origin of the recorded values: the nanobody polyreactivity screen of Harvey et al. (2022)

ASSAY NOTES: yeast display, Sf9 membrane polyspecificity reagent, FACS + sequencing; frameworks hold sequencing errors
METRIC NAME: polyreactivity (PSR sort gate)

The following sequences have reported results that may help.
Requested field: polyreactivity (PSR sort gate). Item: QVQLVESGGGLVQAGGSLRLSCAASGSTFPYNAMGWYIQAPGKERELVAAISSRGGRTYYADSVKGRFSISRDNAKYTVYLQMNSLKPEDTAVYYCAARVVSRKDMNYWGQGTQVTVSS
high polyreactivity

Another: QVQLVESGGGIVQAGGSLRLSSAASGSIIFYYAMGWYRQPRGKEREFVAAITRSGVRTYYADSVKGRFTISRDNAKNTVYLQMNSLKPEDTAVYYCNDDYGFYRPVLMGFWGQGTQVTVSS
low polyreactivity

Another: QVQLVESGGGLVQAGGSLRLSCAASGSIFTYYAMGWYRQAPGKERELVAAISRRGGSTYYAVSVKGRFTISRDNAKNTVYLQMNSLKPEDTAVYYCNKVAYPRYYTGVNEFDYWGQGTQVTVSS
high polyreactivity

Another: QVQLVESGGGLVQAGGSLRLSCAASGFNFYRNTMGWYSQAPGKEREFVAAIRWRGGSTYYADSVKGRFTISRDNAKNTVYLQMNSLKPEDTAVYYCAADTRPGYSGFEYWGQGTQVTVSS
high polyreactivity

Another: QVQLVESGGGLVQAGGSLRLSCASSGRTFFKNALGWYRQSPGKERELVARISWNGGDSTYYADSVKGRFTISRDNAKITVFFQMISLKPEDTAVYYCAADTSYRQGGSRHGYVYWGQGTQVTVSS
low polyreactivity

Another: QVQLVESGGGLVQAGGSLRLSCAASGIIFFYYAMGWYRQAPGKERELVASISSGGSTNYADSVKGRFTISRDNAKNTVYLQMNSLKPEDTALYYCAARRYYVRIQGYKLDYWGHGTQVTVSS
low polyreactivity

Hello, I would appreciate it if you could give polyreactivity (PSR sort gate) for each entry below.
1. QVQLVESGGGLVQAGGSLRLSCAASGSIFYRYAMGWYRQAPGKERELVATIRSGGSTNYADSVKGRFTISRDNAKNTVYLQMKSLKPEDTAVYYCAAVTPETQPDSGPVPPMDSWGQGTQVTVSS
2. QVQLVESGGGLVQAGGSLRLSCAASGYIITSNAMGWYRQAPGKERELVAAITYSDGSTYYADSVKGRFTISRDNAKNTVYLQMNSLIPEDTAVYYCAVDRDYNVAVLRDLDYWGQGTQVTVSS
3. QVQLVETGGGLVQAGGSLRLSCAASGFIFYNAMGWYRQAPGKERELVAAISSGGNTNYADSVKGRFTISRDNAKNTVYLQMNSLKPEDTAVYYCNAGLYQYEAWAYYIRYDYWGQGTQVTVSS

["low polyreactivity", "low polyreactivity", "low polyreactivity"]

Hello, I would appreciate it if you could give polyreactivity (PSR sort gate) for each entry below.
1. QVQLVESGGGLVQAGGSLRISCAASGRTFFGNAMGWYRQAPGKERELGASISTRGGSTYYADSVKGRFTISRDNAKNTVYLQINSLKPADTAVYDCAAPSQSRGYYYWGQGTQVNVSS
2. QVQLVESGGGLVQAGGSLRLSCAASGSIFSAYSMGSYRQAHGKEREFVAAISKSGSSTYYADSVKGRFTISRDNAKNTVYLQMNSLKPEDTAVYYCAAESSSYYGYYIYYYWGQGTQVTVSS
3. QVQLVESGGGLVQAGGSLRLSCAASGRTFEGNAMGWYRQAPGKERELVAAITSGGRTNYADSVKGRFTISRDNAKNTVYLQMNSLKPEDTAVYYCAKVYRSIGPNVSRYGLSYYYWGLGTQVTVSS

["high polyreactivity", "high polyreactivity", "low polyreactivity"]

Hello, I would appreciate it if you could give polyreactivity (PSR sort gate) for each entry below.
1. QVQIVESGGCLVQAGGSLRLSCAASGFTLFLNSMGWYRQAPGQERELVAAISKSDGITYYADSVKGRFSISRDNAKNTVYLKMNSLKPEDTAVYYCNADARGWSVWDPGEYNYWGQGTQVNVSS
2. QVQLVESGGGLVQAGGSLRLSCAASGRTFSVYTMGWYREAPGQERELVAAISSTGRTNYADSVKGRFTISRDNAKNTVYLQMNSQKPEATAVYDCNAGVRNSYTRHALVTAYYLYYYWRQGTQVTVSS
3. QVQLVDSGGGLVQAGGSLRLSCAASGRTFRGNVMGWYRQAPGKEREFVAAITKSDGSTYYADSVKGRFTISRDNAKNTVYLQKNSLKPEDTAVYYCAARTARTGWPWFRYDYWGQGTQVTVSS
4. QVQLVESGGGLVQAGGSLRLSSAASGRIFRRNTMGWYRQAPGKERELVAAITYSGGSTYYADSVKGRFTISRDNAKNTVYLQMNSLKPEDTAVYYCAADTGFYYWYDYWGQGTQVTVSS
5. QVQLVESGGGLVQAGGSLRLSCAASGSIFHSYAQGWYRQAPGKERELVASITASGDSTYYADSVKGRFTISRDNAKNTVYLQMNSLKPEDTAVYYCNTQAVYGGGEGGYDYWGQGTQVTVSS
6. QVQLVESVGGLVQAGGILRLSSAASGRIFYFYAMGWYRQAPGKERELVAGINWNGGSTHYADSVKGRFTISRDNAKNTVYLQMNSLKPEDTAVYYCAADGYYGQYGGHMGYWGQGTQVTVSS
7. QVQLVESGGGLVQAGGSLRLSCAASGSIFNHYAMGWYRQAPGKERELVAVIPSGGSTNYADSVKGRFTISRDNAKNTVYLQMNSLKPEDTAVYYCAADTYLSAVDYYGWAHDYWGQGTQVTVSS
8. QVQLVESGGGLVQAGGSLRLSCAASGRTFYTNALGWYRQAPGKERELVAVISRGGTTYYADSVKGRFTISRDNAKNTVYLQMNSLKPEDTAVYYCAKQRPSGDSSSQMGSWGQGTQVTVSS

1: low polyreactivity; 2: high polyreactivity; 3: low polyreactivity; 4: low polyreactivity; 5: low polyreactivity; 6: high polyreactivity; 7: low polyreactivity; 8: low polyreactivity

Requested field: polyreactivity (PSR sort gate). Item: QVQLVESGGGLVQAGGSLRLSCAASGRTFYYNTMGWYRQAPWKEWELVAAISWRTGSTYYADSVKGRFSISRDNAKNTVYLQMKSLKPEDTAVYYCAAVLFGYPRTIGTWYDRYYYWGQGTQVTVSS
high polyreactivity
